Recorded melting point values for a group of molecules are listed next.

Previously resolved entries follow.
smiles.representation: CCN(CC)CCOc1ccc(NC(=O)C#Cc2ccc(-c3ccc(Cl)cc3)cc2)cc1Cl.Cl
assay.value: 226 to 233 °C
//
smiles.representation: O=C(/C=C/c1ccc(CNCC2CCCCC2)cc1)Nc1ccc(-c2ccc(Cl)cc2)cc1
assay.value: 262 to 263 °C
//
smiles.representation: O=C(CCc1ccc(CNC2CCCC2)cc1)Nc1ccc(-c2ccc(Cl)cc2)cc1
assay.value: 196 to 197 °C

Note: attention shifts to another entry.
Give me measured melting point, please, for this molecule: "O=C(C#Cc1ccc(C(F)(F)F)cc1Cl)Nc1ccc(OCCn2cnnc2)cc1"
223 to 227 °C

* * *

Where a name gives a salt, the structure may show the parent alone.
measured.attribute: melting point

Previously resolved entries follow.
molecule: O=C(CCc1ccc(CNCC2CCCCC2)cc1)Nc1ccc(-c2ccc(Cl)cc2)cc1 [Example 6.22]
melting point: 201 to 204 °C
--
molecule: O=C(C#Cc1ccc(CN2CCCCC2)cc1)Nc1ccc(-c2ccc(Cl)cc2)cc1 [Example 1.39]
melting point: 179.5 °C
--
molecule: O=C(CCc1ccc(CNCCC2CCCCC2)cc1)Nc1ccc(-c2ccc(Cl)cc2)cc1 [Example 6.35]
melting point: 149 to 150.5 °C
--
molecule: CC1CN(Cc2ccc(/C=C/C(=O)Nc3ccc(-c4ccc(Cl)cc4)cc3)cc2)CC(C)O1 (centres unmarked) [Example 5.23]
melting point: 212 to 213 °C
--
molecule: O=C(C#Cc1ccc(-c2ccc(Cl)cc2)cc1)Nc1ccc2c(ccn2CCN2CCCC2)c1 [Example 3.19]
melting point: 224 to 227 °C
--
molecule: CN(Cc1ccccc1)Cc1ccc(CCC(=O)Nc2ccc(-c3ccc(Cl)cc3)cc2)cc1 [Example 6.18]
melting point: 174 to 175 °C

Give me measured melting point, please, for this molecule: CCN(CC)CCOc1ccc(NC(=O)C#Cc2ccc(-c3ccccc3)cc2Cl)cc1Cl (as salt: hydrochloride) [Example 3.32]
195 to 200 °C

Give me measured melting point, please, for this molecule: CN1CCN(Cc2ccc(NC(=O)C#Cc3ccc(-c4ccc(Cl)cc4)cc3)cc2)CC1 [Example 3.8]
182 to 185 °C

* * *

Counter-ions that a name gives are not always drawn.
Recorded melting point values for a group of compounds are listed next.

compound: CCN(CC)CCCOc1ccc(NC(=O)C#Cc2ccc(C(F)(F)F)cc2Cl)cc1Cl (as salt: formate)
melting point: 112 to 116 °C

Give me measured melting point, please, for this compound: O=C(CCc1ccc(CN2CCC(N3CCCCC3)C2)cc1)Nc1ccc(-c2ccc(Cl)cc2)cc1 (stereo not drawn)
168.8 °C

Give me measured melting point, please, for this compound: "COc1cc(NC(=O)C#Cc2ccc(C(F)(F)F)cc2Cl)ccc1OCCN1CCC(C)CC1"
207 to 209 °C

Give me measured melting point, please, for this compound: "COc1cc(NC(=O)C#Cc2ccc(C(F)(F)F)cc2Cl)ccc1OCCN1CCC(OC)CC1"
195 to 197 °C

Give me measured melting point, please, for this compound: "CC(C)Nc1ccc2cc(NC(=O)C#Cc3ccc(C(F)(F)F)cc3Cl)ccc2n1"
57 to 60 °C

Give me measured melting point, please, for this compound: O=C(CCc1ccc(CNC2CC2)cc1)Nc1ccc(-c2ccc(Cl)cc2)cc1 (as salt: trifluoroacetate)
208 °C

Give me measured melting point, please, for this compound: "O=C(CCc1ccc(CN2CCC3(CCCC3)CC2)cc1)Nc1ccc(-c2ccc(Cl)cc2)cc1"
201.5 °C

* * *

measured.attribute: melting point

Give me measured melting point, please, for this molecule: "CN(Cc1ccc(CCC(=O)Nc2ccc(-c3ccc(Cl)cc3)cc2)cc1)CC1CC1"
156 °C

Give me measured melting point, please, for this molecule: "CCN(CC)CCc1ccc(NC(=O)C#Cc2ccc(C(F)(F)F)cc2Cl)cc1"
145 to 150 °C

Give me measured melting point, please, for this molecule: "O=C(/C=C/c1ccc(CN2CCC3(CCCC3)CC2)cc1)Nc1ccc(-c2ccc(Cl)cc2)cc1"
250 °C

* * *

Recorded melting point values for a group of compounds are listed next.

Previously resolved entries follow.
compound: CN(Cc1ccc(C#CC(=O)Nc2ccc(-c3ccc(Cl)cc3)cc2)cc1)C1CCCC1 [Example 1.425]
melting point: 217 to 219 °C

compound: O=C(CCc1ccc(CN2CCN3CCCC3C2)cc1)Nc1ccc(-c2ccc(Cl)cc2)cc1 (stereo not shown) [Example 6.16]
melting point: 177 °C

compound: O=C(C#Cc1ccc(-c2ccc(Cl)cc2)cc1)Nc1ccc(CN2CCC(O)CC2)cc1 [Example 3.18]
melting point: 243 to 247 °C

Note: attention shifts to another entry.
Give me measured melting point, please, for this compound: CC1(O)CCN(Cc2ccc(C#CC(=O)Nc3ccc(-c4ccc(Cl)cc4)cc3)cc2)CC1 [Example 1.37]
192 to 193 °C

* * *

# study.system: hMCH-1R (Homo sapiens)
# Sequence (Q99705 whole entry): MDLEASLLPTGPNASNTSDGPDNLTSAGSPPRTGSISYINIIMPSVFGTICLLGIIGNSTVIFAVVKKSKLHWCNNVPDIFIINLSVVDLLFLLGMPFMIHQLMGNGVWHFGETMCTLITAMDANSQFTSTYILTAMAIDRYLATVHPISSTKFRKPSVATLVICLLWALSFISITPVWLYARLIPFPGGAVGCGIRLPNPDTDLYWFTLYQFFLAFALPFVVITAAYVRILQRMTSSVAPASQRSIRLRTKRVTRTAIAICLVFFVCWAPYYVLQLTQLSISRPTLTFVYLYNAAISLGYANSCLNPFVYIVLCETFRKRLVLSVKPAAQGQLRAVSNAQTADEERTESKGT
measured.attribute: IC50 (nM)
Value expressed in nM; do not type the unit.

Provide IC50, tested on hMCH-1R (Homo sapiens), for CCN(CC)CCOc1ccc(NC(=O)C#Cc2ccc(Cl)cc2Cl)c(Cl)c1 [Example 4.8] .
50

* * *

Structures can show the parent of a compound that is named as a salt.
measured.attribute: melting point

compound: CCN(CC)CCOc1ccc(NC(=O)C#Cc2ccc(Cl)cc2Cl)c(Cl)c1 (as salt: hydrochloride)
melting point: 128 to 130 °C
--
compound: CNC1(c2ccc(C#CC(=O)Nc3ccc(-c4ccc(Cl)cc4)cc3)cc2)CC1 (as salt: trifluoroacetate)
melting point: 217.3 °C
--
compound: CN(Cc1ccc(/C=C/C(=O)Nc2ccc(-c3ccc(Cl)cc3)cc2)cc1)C1CCOCC1
melting point: 196 to 197 °C
--
compound: O=C(Nc1ccc(-c2ccc(Cl)cc2)cc1)C1CC1c1ccc(CN2CCOCC2)cc1 (stereo not shown)
melting point: 187 to 188 °C
--
compound: O=C(C#Cc1ccc(CN2CCC[C@@H]2CO)cc1)Nc1ccc(-c2ccc(Cl)cc2)cc1F
melting point: 146 to 148 °C

Give me measured melting point, please, for this compound: "CN(Cc1ccc(/C=C/C(=O)Nc2ccc(-c3ccc(Cl)cc3)cc2)cc1)CC1CC1"
246 to 247 °C

Give me measured melting point, please, for this compound: "O=C(C#Cc1ccc(-c2ccc(Cl)cc2)cc1)Nc1ccc(CN2CCCCC2)c(Cl)c1"
277 to 281 °C

* * *

Structures can show the parent of a compound that is named as a salt.
measured.attribute: melting point

compound: O=C(C#Cc1ccc(CN2CCCC2)cc1)Nc1ccc(-c2ccc(Cl)cc2)cc1F [Example 1.17]
melting point: 136 °C
//
compound: CCN(CC)CCOc1ccc(NC(=O)C#Cc2ccc(C(F)(F)F)cc2Cl)cc1 [Example 3.38]
melting point: 194 to 197 °C
//
compound: O=C(C#Cc1ccc(C(F)(F)F)cc1Cl)Nc1ccc(CN2CCCCC2)cc1 (as salt: hydrochloride) [Example 3.41]
melting point: 193 to 195 °C
//
compound: CC#Cc1ccc(NC(=O)C#Cc2ccc(CN3CCCCC3)cc2)cc1 [Example 1.2]
melting point: 180 to 181 °C

Give me measured melting point, please, for this compound: CN(Cc1ccc(CCC(=O)Nc2ccc(-c3ccc(Cl)cc3)cc2)cc1)CC1CCOCC1 [Example 6.19]
162 to 163 °C

Give me measured melting point, please, for this compound: O=C(C#Cc1ccc(CCN2CCCC2)cc1)Nc1ccc(-c2ccccc2)cc1 [Example 2.1]
180 to 189 °C

Give me measured melting point, please, for this compound: O=C(CCc1ccc(CN2CCCC2)cc1)Nc1ccc(-c2ccc(Cl)cc2)cc1 [Example 6.11]
183 to 184 °C

Give me measured melting point, please, for this compound: COc1cc(NC(=O)C#Cc2ccc(C(F)(F)F)cc2Cl)ccc1OCCN(C)CC1CC1 (as salt: hydrochloride) [Example 4.278]
173 to 176 °C

* * *

measured.attribute: melting point

molecule: O=C(/C=C/c1ccc(CN2CCC(N3CCCCC3)C2)cc1)Nc1ccc(-c2ccc(Cl)cc2)cc1 (centres unmarked)
measured.attribute: melting point
assay.value: 209 to 210 °C

Give me measured melting point, please, for this molecule: CC1CCC(N(C)Cc2ccc(/C=C/C(=O)Nc3ccc(-c4ccc(Cl)cc4)cc3)cc2)CC1 (centres unmarked)
227 to 258 °C

Give me measured melting point, please, for this molecule: CC1CN(Cc2ccc(CCC(=O)Nc3ccc(-c4ccc(Cl)cc4)cc3)cc2)CC(C)O1 (centres unmarked)
158.5 to 160.5 °C

* * *

Structures can show the parent of a compound that is named as a salt.
Recorded melting point values for a group of compounds are listed next.

Previously resolved entries follow.
compound: CN(CCOc1ccccc1)Cc1ccc(CCC(=O)Nc2ccc(-c3ccc(Cl)cc3)cc2)cc1
assay.value: 122 to 124 °C
//
compound: CN(Cc1ccc(C#CC(=O)Nc2ccc(-c3ccc(Cl)cc3)cc2)cc1)Cc1ccccn1
assay.value: 217 to 218 °C
//
compound: CN(Cc1ccc(/C=C/C(=O)Nc2ccc(-c3ccc(Cl)cc3)cc2)cc1)C1CCNCC1 (as salt: acetate)
assay.value: 207 to 208 °C

Note: attention shifts to another entry.
Give me measured melting point, please, for this compound: "CC1CCN(Cc2ccc(CCC(=O)Nc3ccc(-c4ccc(Cl)cc4)cc3)cc2)CC1"
150 to 151 °C
